Consider the following molecules and their measured IC50 readings.
system-under-test: mutant B-RAF (Homo sapiens, UniProt P15056, V600E)
Construct: purchased Upstate (Charlottesville, Va.)
Sequence (P15056 whole entry V600E): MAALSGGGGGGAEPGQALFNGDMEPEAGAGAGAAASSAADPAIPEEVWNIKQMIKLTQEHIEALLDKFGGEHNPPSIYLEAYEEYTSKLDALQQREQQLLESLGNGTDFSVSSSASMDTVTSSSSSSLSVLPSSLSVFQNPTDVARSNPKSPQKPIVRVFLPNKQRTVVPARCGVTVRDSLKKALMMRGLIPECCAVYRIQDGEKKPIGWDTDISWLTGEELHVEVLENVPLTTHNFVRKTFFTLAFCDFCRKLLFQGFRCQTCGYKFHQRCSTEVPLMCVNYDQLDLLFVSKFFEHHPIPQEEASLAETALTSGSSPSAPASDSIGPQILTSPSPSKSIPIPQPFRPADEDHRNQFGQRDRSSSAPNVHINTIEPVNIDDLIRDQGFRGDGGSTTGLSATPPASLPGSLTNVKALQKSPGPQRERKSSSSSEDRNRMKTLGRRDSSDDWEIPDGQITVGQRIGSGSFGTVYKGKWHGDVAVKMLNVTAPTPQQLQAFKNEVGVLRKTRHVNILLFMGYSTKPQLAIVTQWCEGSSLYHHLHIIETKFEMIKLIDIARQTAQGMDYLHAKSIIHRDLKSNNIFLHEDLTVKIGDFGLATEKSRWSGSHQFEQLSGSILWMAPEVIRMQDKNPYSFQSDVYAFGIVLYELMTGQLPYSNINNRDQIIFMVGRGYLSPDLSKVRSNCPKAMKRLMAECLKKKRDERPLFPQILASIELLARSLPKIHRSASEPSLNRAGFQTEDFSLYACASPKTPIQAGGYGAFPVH
assay-name: RAF biochemical assay (MEK-1 phosphorylation, anti-phospho MEK1/2 detection)

>  <substance-smiles>
O=C(c1ccco1)N1CCC[C@@H](Nc2nccc(-c3c(-c4ccc(F)cc4)nc4occn34)n2)C1

>  <system-under-test>
mutant B-RAF (Homo sapiens, UniProt P15056, V600E)

>  <unit-tag>
nM

>  <qualifier-sign>
=

>  <IC50>
2170

$$$$
>  <substance-smiles>
CC(C)(N)C(=O)N1CCC[C@@H](Nc2nccc(-c3c(-c4ccc(F)cc4)nc4occn34)n2)C1

>  <system-under-test>
mutant B-RAF (Homo sapiens, UniProt P15056, V600E)

>  <unit-tag>
nM

>  <qualifier-sign>
=

>  <IC50>
4520

$$$$
>  <substance-smiles>
O=C(c1ccc(F)cc1)N1CCC[C@@H](Nc2nccc(-c3c(-c4ccc(F)cc4)nc4occn34)n2)C1

>  <system-under-test>
mutant B-RAF (Homo sapiens, UniProt P15056, V600E)

>  <unit-tag>
nM

>  <qualifier-sign>
=

>  <IC50>
184

$$$$
>  <substance-smiles>
CC(C)c1ccc(S(=O)(=O)N2CCC[C@@H](Nc3nccc(-c4c(-c5ccc(F)cc5)nc5occn45)n3)C2)cc1

>  <system-under-test>
mutant B-RAF (Homo sapiens, UniProt P15056, V600E)

>  <unit-tag>
nM

>  <qualifier-sign>
=

>  <IC50>
3020

$$$$
>  <substance-smiles>
CC(C)(N)C(=O)N1CCC(Nc2nccc(-c3c(-c4ccc(F)cc4)nc4occn34)n2)CC1

>  <system-under-test>
mutant B-RAF (Homo sapiens, UniProt P15056, V600E)

>  <unit-tag>
nM

>  <qualifier-sign>
=

>  <IC50>
3760

$$$$
>  <substance-smiles>
CC(C)CC(=O)N1CCC[C@@H](Nc2nccc(-c3c(-c4ccc(F)cc4)nc4occn34)n2)C1

>  <system-under-test>
mutant B-RAF (Homo sapiens, UniProt P15056, V600E)

>  <unit-tag>
nM

>  <qualifier-sign>
=

>  <IC50>
142

$$$$
>  <substance-smiles>
O=S(=O)(c1ccc(C(F)(F)F)cc1)N1CCC[C@@H](Nc2nccc(-c3c(-c4ccc(F)cc4)nc4occn34)n2)C1

>  <system-under-test>
mutant B-RAF (Homo sapiens, UniProt P15056, V600E)

>  <unit-tag>
nM

>  <qualifier-sign>
=

>  <IC50>
403

$$$$
>  <substance-smiles>
O=C([C@@H]1CCCN1)N1CCC[C@@H](Nc2nccc(-c3c(-c4ccc(F)cc4)nc4occn34)n2)C1

>  <system-under-test>
mutant B-RAF (Homo sapiens, UniProt P15056, V600E)

>  <unit-tag>
nM

>  <qualifier-sign>
>

>  <IC50>
5000

$$$$
>  <substance-smiles>
COc1ccc(C(=O)N2CCC[C@@H](Nc3nccc(-c4c(-c5ccc(F)cc5)nc5occn45)n3)C2)cc1

>  <system-under-test>
mutant B-RAF (Homo sapiens, UniProt P15056, V600E)

>  <unit-tag>
nM

>  <qualifier-sign>
=

>  <IC50>
4890

$$$$
>  <substance-smiles>
O=C(c1ccncc1)N1CCC[C@@H](Nc2nccc(-c3c(-c4ccc(F)cc4)nc4occn34)n2)C1

>  <system-under-test>
mutant B-RAF (Homo sapiens, UniProt P15056, V600E)

>  <unit-tag>
nM

>  <qualifier-sign>
=

>  <IC50>
362

$$$$

###

system-under-test: mutant B-RAF (Homo sapiens, UniProt P15056, V600E)
Construct: purchased Upstate (Charlottesville, Va.)
assay-name: RAF biochemical assay (MEK-1 phosphorylation, anti-phospho MEK1/2 detection)
experimental-parameters: read-out: Mutant B-RAF IC50
pIC50: −log10 of the molar value.
Threshold check on pIC50: at or above 6 gives 1, strictly below gives -1.

>  <substance-smiles>
O=S(=O)(c1cccc(Cl)c1)N1CCC(Nc2nccc(-c3c(-c4ccc(F)cc4)nc4occn34)n2)CC1

>  <class-assignment>
1

$$$$
>  <substance-smiles>
CCNC(=O)Nc1cccc(-c2nc3sccn3c2-c2ccnc(N[C@@H]3CCCN(S(=O)(=O)c4ccc(Cl)cc4)C3)n2)c1

>  <class-assignment>
1

$$$$
>  <substance-smiles>
CSc1ccc(NC(=O)N2CCC[C@@H](Nc3nccc(-c4c(-c5cccc(O)c5)nc5sccn45)n3)C2)cc1

>  <class-assignment>
-1

$$$$
>  <substance-smiles>
Cc1cn2c(-c3ccnc(N[C@@H]4CCCN(S(=O)(=O)c5ccc(F)cc5)C4)n3)c(-c3ccc(F)cc3)nc2s1

>  <class-assignment>
1

$$$$
>  <substance-smiles>
O=C(NCc1ccco1)N1CCC(Nc2nccc(-c3c(-c4ccc(F)cc4)nc4occn34)n2)CC1

>  <class-assignment>
1

$$$$
>  <substance-smiles>
COc1cccc(-c2nc3sccn3c2-c2ccnc(N[C@@H]3CCCN(C(=O)c4ccncc4)C3)n2)c1

>  <class-assignment>
-1

$$$$
>  <substance-smiles>
COc1cccc(S(=O)(=O)N2CCC(Nc3nccc(-c4c(-c5ccc(F)cc5)nc5occn45)n3)CC2)c1

>  <class-assignment>
1

$$$$

###

Consider the following compounds and their measured inhibition at 10 µM readings.
system-under-test: mutant B-RAF (Homo sapiens, UniProt P15056, V600E)
Construct: purchased Upstate (Charlottesville, Va.)
assay-name: RAF biochemical assay (MEK-1 phosphorylation, anti-phospho MEK1/2 detection)
experimental-parameters: @ 10 uM; read-out: Mutant B-RAF % inhibition

>  <compound>
COc1cccc(-c2nc3sccn3c2-c2ccnc(N[C@@H]3CCCN(C(=O)NCc4ccccc4)C3)n2)c1 [Example 80]

>  <inhibition at 10 µM [%]>
40

$$$$
>  <compound>
COc1ccc(C(=O)N2CCC[C@@H](Nc3nccc(-c4c(-c5ccc(F)c(F)c5)nc5sccn45)n3)C2)cc1 [Example 89]

>  <inhibition at 10 µM [%]>
40

$$$$
>  <compound>
Cc1ccnc(SCC(=O)N2CCC(Nc3nccc(-c4c(-c5ccc(F)cc5)nc5occn45)n3)CC2)n1 [Example 215]

>  <inhibition at 10 µM [%]>
40

$$$$

###

system-under-test: mutant B-RAF (Homo sapiens, UniProt P15056, V600E)
Construct: purchased Upstate (Charlottesville, Va.)
assay-name: RAF biochemical assay (MEK-1 phosphorylation, anti-phospho MEK1/2 detection)
experimental-parameters: @ 10 uM; read-out: Mutant B-RAF % inhibition
Threshold check on inhibition at 10 µM: at or above 40% gives true, strictly below gives false.

>  <substance-smiles>
Cc1cn2c(-c3ccnc(NC4CCN(C(=O)NCc5ccco5)CC4)n3)c(-c3ccc(F)cc3)nc2s1

>  <class-assignment>
true

$$$$
>  <substance-smiles>
O=C(Nc1ccccc1F)N1CCC[C@@H](Nc2nccc(-c3c(-c4ccc(F)cc4)nc4occn34)n2)C1

>  <class-assignment>
false

$$$$
>  <substance-smiles>
Cc1cn2c(-c3ccnc(N[C@@H]4CCCNC4)n3)c(-c3ccc(F)cc3)nc2s1

>  <class-assignment>
true

$$$$
>  <substance-smiles>
O=S(=O)(c1ccc(Cl)cc1)N1CC[C@@H](Nc2nccc(-c3c(-c4ccc(F)cc4)nc4sccn34)n2)C1

>  <class-assignment>
false

$$$$
>  <substance-smiles>
N#Cc1cccc(-c2nc3sccn3c2-c2ccnc(N[C@@H]3CCN(S(=O)(=O)c4ccc(Cl)cc4)C3)n2)c1

>  <class-assignment>
false

$$$$
>  <substance-smiles>
COc1cccc(-c2nc3sccn3c2-c2ccnc(N[C@@H]3CCNC3)n2)c1

>  <class-assignment>
false

$$$$
>  <substance-smiles>
N#Cc1cccc(-c2nc3sccn3c2-c2ccnc(N[C@@H]3CCCNC3)n2)c1

>  <class-assignment>
false

$$$$
>  <substance-smiles>
c1cc(-c2c(-c3ccc4c(c3)OCCO4)nc3sccn23)nc(NC2CCNCC2)n1

>  <class-assignment>
true

$$$$
>  <substance-smiles>
CN(C)c1ccc(NC(=O)N2CCC[C@@H](Nc3nccc(-c4c(-c5ccc(F)c(F)c5)nc5sccn45)n3)C2)cc1

>  <class-assignment>
true

$$$$
>  <substance-smiles>
C[C@@H](NC(=O)N1CCC[C@@H](Nc2nccc(-c3c(-c4ccc(F)cc4)nc4occn34)n2)C1)c1ccccc1

>  <class-assignment>
true

$$$$
>  <substance-smiles>
N#Cc1cccc(-c2nc3sccn3c2-c2ccnc(N[C@@H]3CCNC3)n2)c1

>  <class-assignment>
true

$$$$
>  <substance-smiles>
N#Cc1ccc(S(=O)(=O)N2CCC(Nc3nccc(-c4c(-c5ccc(F)cc5)nc5occn45)n3)CC2)cc1

>  <class-assignment>
true

$$$$
>  <substance-smiles>
O=S(=O)(c1ccc(Cl)cc1)N1CC[C@H](Nc2nccc(-c3c(-c4ccc(F)cc4)nc4sccn34)n2)C1

>  <class-assignment>
true

$$$$
>  <substance-smiles>
Fc1ccc(-c2nc3sccn3c2-c2ccnc(NC3CCNCC3)n2)cc1F

>  <class-assignment>
true

$$$$
>  <substance-smiles>
O=C(NCCc1ccc(F)cc1)N1CCC[C@@H](Nc2nccc(-c3c(-c4ccc(F)cc4)nc4occn34)n2)C1

>  <class-assignment>
false

$$$$
>  <substance-smiles>
O=C(Nc1ccc(F)cc1)N1CCC(Nc2nccc(-c3c(-c4ccc(F)cc4)nc4sccn34)n2)CC1

>  <class-assignment>
true

$$$$
>  <substance-smiles>
NCCC(=O)Nc1ccccc1-c1nc2sccn2c1-c1ccnc(N[C@@H]2CCCN(S(=O)(=O)c3ccc(Cl)cc3)C2)n1

>  <class-assignment>
true

$$$$
>  <substance-smiles>
O=C(c1ccncc1)N1CCC(Nc2nccc(-c3c(-c4ccc(F)cc4)nc4occn34)n2)CC1

>  <class-assignment>
false

$$$$
>  <substance-smiles>
Cc1cc(NC(=O)N2CCC[C@@H](Nc3nccc(-c4c(-c5ccc(F)cc5)nc5occn45)n3)C2)c(C(F)(F)F)o1

>  <class-assignment>
false

$$$$
>  <substance-smiles>
COc1cccc(-c2nc3sccn3c2-c2ccnc(NC3CCN(C(=O)NCc4ccccc4)CC3)n2)c1

>  <class-assignment>
true

$$$$
>  <substance-smiles>
Clc1ccccc1-c1nc2occn2c1-c1ccnc(NC2CCNCC2)n1

>  <class-assignment>
true

$$$$
>  <substance-smiles>
c1ccc2cc(-c3nc4sccn4c3-c3ccnc(NC4CCNCC4)n3)ccc2c1

>  <class-assignment>
true

$$$$
>  <substance-smiles>
CC(=O)N1CCC(Nc2nccc(-c3c(-c4ccccc4C)nc4occn34)n2)CC1

>  <class-assignment>
true

$$$$
>  <substance-smiles>
COc1cccc(-c2nc3sccn3c2-c2ccnc(NC3CCN(C(=O)Nc4ccc(N(C)C)cc4)CC3)n2)c1

>  <class-assignment>
true

$$$$
>  <substance-smiles>
COc1ccc(Cl)cc1S(=O)(=O)N1CCC(Nc2nccc(-c3c(-c4ccc(F)cc4)nc4occn34)n2)CC1

>  <class-assignment>
false

$$$$
